Structures can show the parent of a compound that is named as a salt.
melting point listing for selected compounds.

Below, 5 compounds whose answers are already recorded.
INPUT: Fill blank: measured melting point of the compound Cl.N=C(NC(=N)N1CCCC1)Nc1cc(Br)cc(OC(F)(F)F)c1 [Example 66] is ____.
OUTPUT: 241 to 242 °C

INPUT: Fill blank: measured melting point of the compound Cl.N=C(NC(=N)N1CCCCC1)Nc1ccccc1F [Example 15] is ____.
OUTPUT: 155 to 157 °C

INPUT: Fill blank: measured melting point of the compound Cl.N=C(NC(=N)N1CCCCC1)Nc1ccc(OC(F)(F)F)c(Cl)c1 [Example 57] is ____.
OUTPUT: 261 to 262 °C

INPUT: Fill blank: measured melting point of the compound COc1cc(NC(=N)NC(=N)N2CCCCC2)cc(OC)c1.Cl [Example 45] is ____.
OUTPUT: 234 to 236 °C

INPUT: Fill blank: measured melting point of the compound Cl.N=C(NC(=N)N1CCCCC1)Nc1cc(F)cc(F)c1 [Example 60] is ____.
OUTPUT: 243 to 244 °C

New cases:
INPUT: Fill blank: measured melting point of the compound Cl.N=C(NC(=N)N1CCCC1)Nc1ccc(OC(F)(F)F)c(F)c1 [Example 53] is ____.
OUTPUT: 278 to 279 °C

INPUT: Fill blank: measured melting point of the compound Cl.N=C(NC(=N)N1CCOCC1)Nc1ccc(OC(F)(F)F)cc1 [Example 34] is ____.
OUTPUT: 263 to 264 °C

INPUT: Fill blank: measured melting point of the compound N=C(NC(=N)N1CCCCC1)Nc1ccc(OC(F)(F)F)cc1 (as salt: acetate) [Example 73] is ____.
OUTPUT: 200 to 202 °C

INPUT: Fill blank: measured melting point of the compound Cl.N=C(NC(=N)N1CCC1)Nc1ccc(OC(F)(F)F)cc1 [Example 31] is ____.
OUTPUT: 257 to 259 °C

* * *

# System: HCT116 cells
# experiment_summary: Measurement of effect of inhibiting cancer cell proliferation (MTT)
# Format: cell-based, human
# experimental_conditions: Homo sapiens, HCT-116, 48 h
measure_name: GI50 (µM)
The reply should contain only the number, in µM.

Below, 5 molecules whose answers are already recorded.
INPUT: Fill blank: measured GI50 of the molecule Cl.N=C(NC(=N)N1CCCCC1)Nc1cc(F)c(F)c(F)c1 [Example 68, hydrochloride] is ____.
OUTPUT: 13.8

INPUT: Fill blank: measured GI50 of the molecule Cl.N=C(NC(=N)N1CCCC1)Nc1cccc(Cl)c1 [Example 19, hydrochloride] is ____.
OUTPUT: 55.9

INPUT: Fill blank: measured GI50 of the molecule Cl.N=C(NC(=N)N1CCCCC1)Nc1ccc(Cl)c(C(F)(F)F)c1 [Example 47, hydrochloride] is ____.
OUTPUT: 1.9

INPUT: Fill blank: measured GI50 of the molecule Cl.N=C(NC(=N)N1CCCC1)Nc1ccc(Cl)cc1 [Example 17, hydrochloride] is ____.
OUTPUT: 48.2

INPUT: Fill blank: measured GI50 of the molecule Cl.N=C(NC(=N)N1CCCC1)Nc1ccc(OC(F)(F)F)c(Cl)c1 [Example 56, hydrochloride] is ____.
OUTPUT: 4.6

Shifting focus to the molecule that follows.
INPUT: Fill blank: measured GI50 of the molecule Cl.N=C(NC(=N)N1CCCCC1)Nc1ccc(F)c(C(F)(F)F)c1 [Example 46, hydrochloride] is ____.
OUTPUT: 5.6

Ref: patent US9540325B2
